- assayOverview: Primary qHTS for inhibitors of nuclear receptor binding SET domain protein 2 (NSD2) in an isogenic RCH-ACV NSD2 p.E1099K mutant (9B) (AID 1645876); further: nearly all actives have a fitted effect of over 70% in size
- conditionParameters: RCH-ACV (leukaemia line) NSD2 E1099K (9B) viability, CellTiter-Glo, 72 h; series mostly up to 44.9 µM
Records with an inconclusive call do not appear. The source made the active and inactive calls. The call rests on the fitted dose curve; in most records, active means well fitted inhibition curve with a large enough effect; inconclusive means small, poorly fitted or top-dose-only effect; inactive means flat fitted curve, though single readings scatter.
Pick one and only one: active, inactive

Before answering, review these 6 worked examples.
compound | labelValue
O=C(NCCCNC(=O)c1ccc[nH]c1=O)c1cc(-c2ccccc2)on1 | active
CCCC1(CCC)CCC2(CCN(CCCN(CC)CC)C2)CC1 | active
O=C(c1ccccn1)N(Cc1cccs1)C1(C(=O)NC2CCCCC2)CCCCC1 | inactive
O=C(Nc1cccnn1)N1CCN(c2nccc(-c3ccc(F)c(F)c3)n2)CC1 | inactive
COc1cc(-n2cnc3cc(-c4ccc(Cl)cc4)sc3c2=O)ccc1OCCN1CCCC1 | active
COc1ccc(CCO[C@@H]2O[C@H](CO[C@H]3OC[C@](O)(CO)[C@H]3O)[C@@H](OC(=O)/C=C/c3ccc(O)c(O)c3)[C@H](O[C@@H]3O[C@@H](C)[C@H](O)[C@@H](O)[C@H]3O)[C@H]2O)cc1OC | active

Recorded test call requested for CO[C@H]1[C@@H](O)[C@H](O[C@H]2CC[C@@]3(C)C(CCC4C3CC[C@]35COC6(COC(=O)C6)C3CCC45O)C2)O[C@@H](C)[C@@H]1OC1OC(CO)C(OC2OC(CO)C(O)C(O)C2O)C(O)C1O (stereo partly specified)
active

Record request — test call for COc1cc(C(=O)O)ccc1NC(=O)C1NC(CC(C)(C)C)C(C#N)(c2ccc(Cl)cc2F)C1c1cccc(Cl)c1F (stereo unspecified)
inactive

Assay outcome for CCn1c2ccccc2c2cc(Nc3ccnc(NCCCN4CCOCC4)n3)ccc21 : what was it?
active

Can you look up the reported call for C=C[C@@]12COC(=O)C(=C)[C@@H]1[C@@H](O)[C@H](C(=C)C(=O)OC)[C@@H](O)C2 for me?
inactive

# fetch the recorded call for Fc1ccc(CN2CCC(Nc3ccc(C(F)(F)F)nn3)CC2)cc1F here
inactive

Name the outcome recorded for Cn1nc(-c2ccc(C(F)(F)F)cc2)nc2c(=O)n(C)c(=O)nc1-2 in the assay.
active

Write down the call the test reported for this compound. Item: Fc1ccc(-n2cc(CCCCN3CCC4(CC3)OCc3ccccc34)c3ccccc32)cc1
active

Name the outcome recorded for C/C(=C\Cc1c(O)c(Cl)c(C)c(C=O)c1O)CC/C=C(\C)[C@H]1CC(=O)C(C)(C)O1 in the assay.
active

Please indicate how the test categorized C=C[C@@]1(C)C=C2C(=O)C(O)=C3[C@](C)(C(=O)O)CC[C@@H]4C[C@]34[C@]2(O)C(=O)C1 .
active

Taken from PubChem BioAssay (NCATS).
